- Measurement Target: human c-Met (human, UniProt P08581 25-1390)
- Sequence (P08581 25-1390): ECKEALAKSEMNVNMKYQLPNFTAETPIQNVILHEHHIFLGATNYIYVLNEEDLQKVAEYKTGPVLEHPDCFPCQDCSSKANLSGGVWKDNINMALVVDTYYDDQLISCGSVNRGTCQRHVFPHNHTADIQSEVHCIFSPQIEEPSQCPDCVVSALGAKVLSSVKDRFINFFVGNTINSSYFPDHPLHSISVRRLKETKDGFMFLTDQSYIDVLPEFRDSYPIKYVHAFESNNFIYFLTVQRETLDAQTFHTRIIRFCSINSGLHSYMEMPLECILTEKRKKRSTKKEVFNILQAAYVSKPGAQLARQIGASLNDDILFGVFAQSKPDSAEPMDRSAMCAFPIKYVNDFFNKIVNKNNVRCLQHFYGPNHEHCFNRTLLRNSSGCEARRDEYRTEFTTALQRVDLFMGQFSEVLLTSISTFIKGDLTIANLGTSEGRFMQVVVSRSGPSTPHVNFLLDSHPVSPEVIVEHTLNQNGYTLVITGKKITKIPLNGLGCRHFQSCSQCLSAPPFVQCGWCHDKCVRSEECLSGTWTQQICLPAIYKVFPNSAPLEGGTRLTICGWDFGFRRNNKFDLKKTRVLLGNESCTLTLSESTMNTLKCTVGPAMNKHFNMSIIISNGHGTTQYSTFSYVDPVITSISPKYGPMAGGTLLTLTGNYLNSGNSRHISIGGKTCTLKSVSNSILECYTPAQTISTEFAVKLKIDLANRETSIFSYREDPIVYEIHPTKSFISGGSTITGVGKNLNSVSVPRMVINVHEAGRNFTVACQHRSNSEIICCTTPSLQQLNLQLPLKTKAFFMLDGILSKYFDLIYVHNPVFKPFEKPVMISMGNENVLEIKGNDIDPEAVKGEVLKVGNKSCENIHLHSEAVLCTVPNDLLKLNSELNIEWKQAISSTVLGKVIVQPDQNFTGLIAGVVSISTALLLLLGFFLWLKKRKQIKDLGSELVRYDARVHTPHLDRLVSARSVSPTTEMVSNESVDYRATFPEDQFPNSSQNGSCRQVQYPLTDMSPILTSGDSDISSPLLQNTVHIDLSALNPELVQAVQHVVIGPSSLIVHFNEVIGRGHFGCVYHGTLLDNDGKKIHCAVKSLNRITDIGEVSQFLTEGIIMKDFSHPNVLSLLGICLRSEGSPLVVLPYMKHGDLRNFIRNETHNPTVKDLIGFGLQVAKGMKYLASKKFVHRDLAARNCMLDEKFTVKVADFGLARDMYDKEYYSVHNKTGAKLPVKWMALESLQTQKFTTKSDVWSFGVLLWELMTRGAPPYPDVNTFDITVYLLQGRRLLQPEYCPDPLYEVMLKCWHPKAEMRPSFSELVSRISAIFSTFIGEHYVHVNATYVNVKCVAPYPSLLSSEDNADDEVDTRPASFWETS
- Method: cell-based or functional assay
Measurement Type: Mean Fluorescence (c-Met left on the surface of MKN45 cells, FACS), Ab 5.00 ug/mL
# respond with the number and nothing more

[in] # Mean Fluorescence (c-Met left on the surface of MKN45 cells, FACS), Ab 5.00 ug/mL lookup, item D11-8B8 (antibody, human IgG2, kappa, V domains shown, Human engineered IgG2 kappa c-Met antibody; also called Mab D11-8B8; D11-8B8 IgG2) VH: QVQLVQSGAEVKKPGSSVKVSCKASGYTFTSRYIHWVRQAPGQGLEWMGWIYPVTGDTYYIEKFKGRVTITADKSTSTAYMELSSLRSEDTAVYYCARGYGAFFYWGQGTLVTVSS VL: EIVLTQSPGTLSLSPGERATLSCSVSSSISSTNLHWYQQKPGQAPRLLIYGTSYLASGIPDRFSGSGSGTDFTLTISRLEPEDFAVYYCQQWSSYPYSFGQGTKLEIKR
[out] 44.7
